Below is a list of entries, each paired with its recorded pIC50 value.
Target: human group 1B PLA2 (hps PLA2) (Homo sapiens, UniProt P04054)
Construct: made in house; host or cells: E. coli
Sequence (P04054 23-148): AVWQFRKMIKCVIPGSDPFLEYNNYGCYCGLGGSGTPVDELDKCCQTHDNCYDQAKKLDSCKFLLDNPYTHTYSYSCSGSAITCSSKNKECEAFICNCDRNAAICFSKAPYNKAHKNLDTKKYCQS
Experiment: Fluorimetric PPyrPM assay for group 1B PLA2 inhibition (Example 12)
Format: biochemical
Details: human pancreas secreted PLA2; read-out: ILYPSA IC50 hps PLA2
Just the number, please; pIC50 means minus log10 of the concentration in mol/L.

QUERY: Item Cc1c(C(=O)C(N)=O)c2c(OC(CC(C)C)C(=O)O)cccc2n1Cc1ccccc1 (centres unmarked) has what recorded pIC50?
RESULT: 5.53

QUERY: Moving on to the next compound: `Cc1c(C(=O)C(N)=O)c2c(OCC(=O)O)ccc(N)c2n1Cc1ccccc1`
RESULT: 5.05

QUERY: And for `CCc1c(C(=O)C(N)=O)c2c(OCC(=O)O)nccc2n1Cc1ccccc1` ?
RESULT: 5.84

QUERY: Here is the next compound: `CCCCCCCCn1c(C)c(C(=O)C(N)=O)c2c(OCC(=O)O)cccc21`
RESULT: 6.19

QUERY: For `Cc1c(C(=O)C(N)=O)c2c(OCC(=O)O)cccc2n1CCCCCCCCCCCCSSCCCCCCCCCCCCn1c(C)c(C(=O)C(N)=O)c2c(OCC(=O)O)cccc21` then?
RESULT: 6.22

QUERY: What about `Cc1c(C(=O)C(N)=O)c2c(OCC(=O)O)cccc2n1Cc1ccc(-c2ccccc2)cc1` ?
RESULT: 5.90

QUERY: Do the same for `Cc1c(C(=O)C(N)=O)c2c(OCC(=O)O)cccc2n1CCCCCCCCCCCCOc1ccccc1OCCCCCCCCCCCCn1c(C)c(C(=O)C(N)=O)c2c(OCC(=O)O)cccc21` please
RESULT: 6.82

QUERY: Subsequent entry: `Cc1c(C(=O)C(N)=O)c2c(OCC(=O)O)cccc2n1CCCCCCCCCCCCOc1cc(OCCCCCCCCCCCCn2c(C)c(C(=O)C(N)=O)c3c(OCC(=O)O)cccc32)cc(OCCCCCCCCCCCCn2c(C)c(C(=O)C(N)=O)c3c(OCC(=O)O)cccc32)c1`
RESULT: 7.22

QUERY: Now the compound Cc1c(C(=O)C(N)=O)c2c(OC(C(=O)O)C(C)C)cccc2n1CCCCCCCCCCCCn1c(C)c(C(=O)C(N)=O)c2c(OC(C(=O)O)C(C)C)cccc21 (centres unmarked)
RESULT: 6.55
